molecular target: ROCKII (1-543) (Homo sapiens, UniProt O75116); assay: Luciferin-Luciferase Assay (PKLight ATP detection); type: biochemical; design: ROCKII (1-543) (62,408 Da) was diluted in assay buffer; settings: 7.5 nM ROCKII (1-543), 750 nM ATP
Sequence (O75116 1-543): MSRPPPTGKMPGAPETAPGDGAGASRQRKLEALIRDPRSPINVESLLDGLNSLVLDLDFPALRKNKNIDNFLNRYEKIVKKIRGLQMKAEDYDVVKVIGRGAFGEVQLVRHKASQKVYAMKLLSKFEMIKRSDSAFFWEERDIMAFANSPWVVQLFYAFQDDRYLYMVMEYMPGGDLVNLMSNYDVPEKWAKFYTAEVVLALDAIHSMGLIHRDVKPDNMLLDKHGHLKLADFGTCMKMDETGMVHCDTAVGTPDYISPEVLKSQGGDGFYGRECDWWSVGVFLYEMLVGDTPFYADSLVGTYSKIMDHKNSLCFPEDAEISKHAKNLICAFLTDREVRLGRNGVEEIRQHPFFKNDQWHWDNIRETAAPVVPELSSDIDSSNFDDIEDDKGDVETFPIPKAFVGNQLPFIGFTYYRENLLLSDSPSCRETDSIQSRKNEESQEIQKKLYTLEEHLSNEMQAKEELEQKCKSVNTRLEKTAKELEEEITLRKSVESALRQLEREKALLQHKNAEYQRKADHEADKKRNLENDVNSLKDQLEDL
pIC50: −log10 of the molar value. Counter-ions that a name gives are not always drawn.
# pIC50 values compiled below
Experimental Readout: pIC50

molecule="N#Cc1ccc(-c2cnn(Cc3cccc(C(=O)Nc4nc5c(s4)CC(N4CCC(F)CC4)CC5)c3)c2)cc1 (stereo not drawn) [Compound 18, trifluoroacetate]" recorded_number=8.66
molecule=N#Cc1ccc(-c2cn(Cc3cccc(C(=O)Nc4nc5c(s4)C[C@@H](N4CCCCC4)CC5)c3)nn2)cc1 recorded_number=8.62
molecule=N#Cc1ccc(-c2cn(Cc3cccc(C(=O)Nc4nc5c(s4)C[C@@H](NCCC(F)(F)F)CC5)c3)nn2)cc1 recorded_number=8.66
molecule=N#Cc1ccc(-c2cn(Cc3cccc(C(=O)Nc4nc5c(s4)C[C@@H](N4CCOCC4)CC5)c3)cn2)cc1 recorded_number=8.57
molecule=COCCN[C@@H]1CCc2nc(NC(=O)c3cccc(Cn4cc(-c5ccc(C#N)cc5)nn4)c3)sc2C1 recorded_number=8.72
molecule="N#Cc1ccc(-c2cn(Cc3cccc(C(=O)Nc4nc5c(s4)CC(N4CCC(F)(F)CC4)CC5)c3)nn2)cc1 (stereo not drawn)" recorded_number=8.15
